Overview of reported pIC50 across a group of compounds:
- assay target: Phosphatidylinositol 4,5-bisphosphate 3-kinase catalytic subunit delta isoform (Homo sapiens)
- Sequence (O00329 whole entry, canonical isoform): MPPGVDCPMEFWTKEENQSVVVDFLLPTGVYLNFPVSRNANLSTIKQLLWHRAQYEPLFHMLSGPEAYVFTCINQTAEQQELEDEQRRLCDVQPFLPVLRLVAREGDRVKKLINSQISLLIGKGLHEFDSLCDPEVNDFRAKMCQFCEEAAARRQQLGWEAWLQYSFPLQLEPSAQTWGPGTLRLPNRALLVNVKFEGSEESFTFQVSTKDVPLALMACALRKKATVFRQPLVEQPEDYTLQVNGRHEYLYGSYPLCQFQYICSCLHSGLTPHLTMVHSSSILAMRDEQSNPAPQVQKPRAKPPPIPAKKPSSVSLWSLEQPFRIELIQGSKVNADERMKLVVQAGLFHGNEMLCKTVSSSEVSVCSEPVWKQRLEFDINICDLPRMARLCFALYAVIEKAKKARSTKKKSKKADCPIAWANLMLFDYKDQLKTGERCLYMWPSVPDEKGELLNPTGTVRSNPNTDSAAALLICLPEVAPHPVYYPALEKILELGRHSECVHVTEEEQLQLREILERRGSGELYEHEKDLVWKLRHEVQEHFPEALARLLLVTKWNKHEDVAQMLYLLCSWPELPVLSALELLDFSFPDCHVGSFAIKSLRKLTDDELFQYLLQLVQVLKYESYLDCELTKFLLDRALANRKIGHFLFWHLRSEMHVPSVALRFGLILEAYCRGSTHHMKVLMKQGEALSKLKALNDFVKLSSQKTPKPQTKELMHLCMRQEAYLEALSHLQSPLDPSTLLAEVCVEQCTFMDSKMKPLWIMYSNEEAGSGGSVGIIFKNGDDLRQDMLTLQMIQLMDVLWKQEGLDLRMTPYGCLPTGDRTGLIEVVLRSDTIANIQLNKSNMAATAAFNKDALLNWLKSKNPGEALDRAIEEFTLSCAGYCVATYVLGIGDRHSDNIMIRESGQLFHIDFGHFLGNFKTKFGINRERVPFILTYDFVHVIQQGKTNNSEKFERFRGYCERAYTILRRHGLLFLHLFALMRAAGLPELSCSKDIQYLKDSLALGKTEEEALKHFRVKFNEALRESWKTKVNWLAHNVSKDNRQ
pIC50: −log10 of the molar value.
measure: pIC50

compound=Cc1cccc(NCc2cccn3c(=O)cc(N4CCOCC4)nc23)c1 measure=pIC50 lt_gt_eq== observed_result=6.09
compound=Cc1cc(NCc2ccccn2)c2nc(N3CCOCC3)cc(=O)n2c1 measure=pIC50 lt_gt_eq== observed_result=6.10
compound=CN(Cc1cccn2c(=O)cc(N3CCOCC3)nc12)c1ccccc1 measure=pIC50 lt_gt_eq== observed_result=6.57
compound="Cc1cc(C(C)Nc2ccccc2)c2nc(N3CCOCC3)cc(=O)n2c1 (racemic)" measure=pIC50 lt_gt_eq== observed_result=6.85
compound=Cc1ccc(CNc2cc(C)cn3c(=O)cc(N4CCOCC4)nc23)cc1 measure=pIC50 lt_gt_eq== observed_result=6.19
compound=Cc1ccc(NC(=O)c2cccn3c(=O)cc(N4CCOCC4)nc23)cc1 measure=pIC50 lt_gt_eq== observed_result=6.85
compound=O=c1cc(N2CCOCC2)nc2c(CNc3ccccc3)cccn12 measure=pIC50 lt_gt_eq== observed_result=6.33
compound=Cc1cccc(Nc2cc(C)cn3c(=O)cc(N4CCOCC4)nc23)c1 measure=pIC50 lt_gt_eq== observed_result=6.33
compound=Cc1cc(N[C@@H](C)c2ccccc2)c2nc(N3CCOCC3)cc(=O)n2c1 measure=pIC50 lt_gt_eq== observed_result=6.57
compound=Cc1cccc(NC(=O)c2cccn3c(=O)cc(N4CCOCC4)nc23)c1 measure=pIC50 lt_gt_eq== observed_result=6.52
compound="Cc1cc(C(C)N(C)c2ccccc2)c2nc(N3CCOCC3)cc(=O)n2c1 (racemic)" measure=pIC50 lt_gt_eq== observed_result=6.66
compound=O=c1cc(N2CCOCC2)nc2c(COc3ccccc3)cccn12 measure=pIC50 lt_gt_eq== observed_result=6.33
compound=Cc1ccc(C(=O)Nc2cccn3c(=O)cc(N4CCOCC4)nc23)cc1 measure=pIC50 lt_gt_eq== observed_result=7.52
compound=Cc1ccc(OCc2cccn3c(=O)cc(N4CCOCC4)nc23)cc1 measure=pIC50 lt_gt_eq== observed_result=6.26
compound=Cc1cc(NCc2ccncc2)c2nc(N3CCOCC3)cc(=O)n2c1 measure=pIC50 lt_gt_eq== observed_result=6.15
compound=O=C(NCc1ccncc1)c1cccn2c(=O)cc(N3CCOCC3)nc12 measure=pIC50 lt_gt_eq=< observed_result=5.00
compound=Cc1cc(Nc2c(C)cccc2C)c2nc(N3CCOCC3)cc(=O)n2c1 measure=pIC50 lt_gt_eq== observed_result=6.30
compound=Cc1cc(Nc2ccccc2)c2nc(N3CCOCC3)cc(=O)n2c1 measure=pIC50 lt_gt_eq== observed_result=6.39
compound=Cc1ccccc1C(=O)Nc1cccn2c(=O)cc(N3CCOCC3)nc12 measure=pIC50 lt_gt_eq== observed_result=6.57
compound=Cc1cc(N[C@H](C)c2ccccc2)c2nc(N3CCOCC3)cc(=O)n2c1 measure=pIC50 lt_gt_eq== observed_result=6.10
compound=Cc1cc(N(C)c2ccccc2)c2nc(N3CCOCC3)cc(=O)n2c1 measure=pIC50 lt_gt_eq== observed_result=6.05
compound=O=c1cc(N2CCOCC2)nc2c(NS(=O)(=O)c3ccccc3)cccn12 measure=pIC50 lt_gt_eq== observed_result=5.77
